Biological target: CyclinB1/CDK1 (Homo sapiens)
Construct: purchased Eurofins, discovery 14-450
Assay: Fluorescence Polarization (FP) competitive binding assay, Cyclin B1/Cdk1;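 note: fluorescence polarization read after equilibration at room temperature, with IC50 taken from serially diluted dose-response curves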
Settings: read-out: Cyclin B FP IC50; 10 nM Cyclin B1/Cdk1, 2 nM FAM probe; average of 2-3 independent experiments
*1 amine or outer side, *2 acyl side, *3 side chain or, on linkers, in order; H or OH if unused. Where a SMILES comes first, the peptide text is derived from it. Bridges are numbered along the chain shown (N, C = ends). [ ]: non-standard residue; d: D form. The star is where a group is joined. X216 = CN1CCC(c2ccc(Cl)cc2C[C@@H](C(=O)[*:2])N(C)[*:1])=CC1=O; NMehhhLys(Me) = CN([C@@H](CCCCCCCN(C)[*:3])C(=O)[*:2])[*:1]; NMe3Pal(2-OMe,5-Cl) = CN[C@@H](Cc1cc(Cl)cnc1OC)C(=O)O; cBuCO(3,3-F2-1-CF3) = O=C(C1(C(F)(F)F)CC(F)(F)C1)*; Pro(trans-4-F) = O=C(O)[C@@H]1C[C@@H](F)CN1; Gly(cPr) = N[C@H](C(=O)O)C1CC1
Measured pIC50, listed per entry.
Interpret pIC50 as the negative base-10 log of the concentration measured in mol/L.

Return reported pIC50; argument: CC(C)C[C@@H]1NC(=O)[C@@H](N(C)C(=O)[C@@H](NC(=O)[C@@H]2C[C@@H](F)CN2C(=O)C2(C(F)(F)F)CC(F)(F)C2)C2CC2)CCCCCCCN(C)C(=O)[C@H](Cc2cc(Cl)ccc2C2=CC(=O)N(C)CC2)N(C)C1=O [Example 237] ({cBuCO(3,3-F2-1-CF3)}-[Pro(trans-4-F)][Gly(cPr)][NMehhhLys(Me)]L[X216]; lactam 3-C)
7.70

# ---- query compound ----
Return reported pIC50; argument: COc1ncc(Cl)cc1C[C@H]1C(=O)N(C)CCCCCCC[C@H](N(C)C(=O)[C@@H](NC(=O)[C@@H]2C[C@@H](F)CN2C(=O)C2(C(F)(F)F)CC(F)(F)C2)C2CC2)C(=O)N[C@@H](CC(C)C)C(=O)N1C [Example 222] ({cBuCO(3,3-F2-1-CF3)}-[Pro(trans-4-F)][Gly(cPr)][NMehhhLys(Me)]L[NMe3Pal(2-OMe,5-Cl)]; lactam 3-C)
7.70

====

Measured GI50, listed per entry.
Test system: NCI-H1048 cells
Assay: MTT proliferation assay, NCI-H1048;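 note: Dose-response in 96-well plates over 8 or 10 concentration points, with exposure spanning 3-4 cell doublings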
Format: cell-based
Details: 5 days compound exposure, 1:3 serial dilution starting at 10 μM
*1 amine or outer side, *2 acyl side, *3 side chain or, on linkers, in order; H or OH if unused. Where a SMILES comes first, the peptide text is derived from it. Bridges are numbered along the chain shown (N, C = ends). [ ]: non-standard residue; d: D form. The star is where a group is joined. X92 = CN1CCN(C(=O)c2ccc(-c3ccc(Cl)cc3C[C@@H](C(=O)[*:2])N(C)[*:1])cc2)CC1; X113 = Cc1cc(-c2ccc(Cl)cc2C[C@@H](C(=O)[*:2])N(C)[*:1])n(C)n1; NMehhhLys(Me) = CN([C@@H](CCCCCCCN(C)[*:3])C(=O)[*:2])[*:1]; cBuCO(3,3-F2-1-CF3) = O=C(C1(C(F)(F)F)CC(F)(F)C1)*; Pro(trans-4-F) = O=C(O)[C@@H]1C[C@@H](F)CN1; Gly(cPr) = N[C@H](C(=O)O)C1CC1
Your answer should be a plain number; it is taken to be in nM.

Below: 2 compounds and their reported GI50.
Return reported GI50; argument: CC(C)C[C@@H]1NC(=O)[C@@H](N(C)C(=O)[C@@H](NC(=O)[C@@H]2C[C@@H](F)CN2C(=O)C2(C(F)(F)F)CC(F)(F)C2)C2CC2)CCCCCCCN(C)C(=O)[C@H](Cc2cc(Cl)ccc2-c2ccc(C(=O)N3CCN(C)CC3)cc2)N(C)C1=O [Example 390] ({cBuCO(3,3-F2-1-CF3)}-[Pro(trans-4-F)][Gly(cPr)][NMehhhLys(Me)]L[X92]; lactam 3-C)
30

Return reported GI50; argument: Cc1nnc(-c2ccc(Cl)cc2C[C@H]2C(=O)NCCCCC=CC[C@H](N(C)C(=O)[C@@H](NC(=O)[C@@H]3C[C@@H](F)CN3C(=O)C3(C(F)(F)F)CCC3)C3CC3)C(=O)N[C@@H](CC(C)C)C(=O)N2C)o1 (single isomer, unassigned) [Example 117-P2]
90

# ---- query compound ----
Return reported GI50; argument: Cc1cc(-c2ccc(Cl)cc2C[C@H]2C(=O)N(C)CCCCCCC[C@H](N(C)C(=O)[C@@H](NC(=O)[C@@H]3C[C@@H](F)CN3C(=O)C3(C(F)(F)F)CC(F)(F)C3)C3CC3)C(=O)N[C@@H](CC(C)C)C(=O)N2C)n(C)n1 [Example 235] ({cBuCO(3,3-F2-1-CF3)}-[Pro(trans-4-F)][Gly(cPr)][NMehhhLys(Me)]L[X113]; lactam 3-C)
100
